Value source: patent US10610507B2

test: in vitro; settings: human, liver microsomes
QUANTITY MEASURED: half-life

| COMPOUND | MEASURED VALUE |
| --- | --- |
| CCN(CC)CC#CCOC(=O)C(O)(c1ccccc1)C1CCCCC1 (racemic) | 5.2 min |

###

experiment: in vitro; conditions: human, liver microsomes
QUANTITY MEASURED: microsomal CLint

| MOLECULE | QUANTITY MEASURED | MEASURED VALUE |
| --- | --- | --- |
| CCN(CC)CC#CCOC(=O)C(O)(c1ccccc1)C1CCCCC1 (racemic) | microsomal CLint | 267 µL/min/mg |
